TESTED_TARGET: Human TfR1 protein (R&D Systems, 2474-TR or Acro Biosystems, CD1-H5243) (human, UniProt P02786 89-760)
Sequence (P02786 89-760 limits assumed): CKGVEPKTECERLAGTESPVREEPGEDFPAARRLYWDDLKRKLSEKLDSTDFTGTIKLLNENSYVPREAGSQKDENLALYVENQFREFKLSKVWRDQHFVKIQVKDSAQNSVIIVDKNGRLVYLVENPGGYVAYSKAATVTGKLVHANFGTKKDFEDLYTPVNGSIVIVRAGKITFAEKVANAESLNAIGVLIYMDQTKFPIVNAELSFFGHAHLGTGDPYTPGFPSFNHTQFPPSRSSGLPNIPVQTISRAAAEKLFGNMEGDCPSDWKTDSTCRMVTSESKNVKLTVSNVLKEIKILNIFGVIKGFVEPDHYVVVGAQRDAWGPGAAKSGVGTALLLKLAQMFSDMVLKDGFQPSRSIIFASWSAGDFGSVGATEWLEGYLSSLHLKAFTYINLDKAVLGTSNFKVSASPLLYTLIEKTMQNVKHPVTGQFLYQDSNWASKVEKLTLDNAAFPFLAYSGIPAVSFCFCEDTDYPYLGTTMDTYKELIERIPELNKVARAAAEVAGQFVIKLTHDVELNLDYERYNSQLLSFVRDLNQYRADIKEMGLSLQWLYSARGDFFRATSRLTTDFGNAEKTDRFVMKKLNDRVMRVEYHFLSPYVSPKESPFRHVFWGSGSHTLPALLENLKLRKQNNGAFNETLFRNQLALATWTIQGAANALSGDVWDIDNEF
ASSAY_PROCEDURE: FP competition, competitor BCY15768
Starred links: 1 amine or outer side, 2 acyl side, 3 side chain; linkers in the order of their positions; H or OH if unused. Positions of bridges follow the written chain, without caps; N, C: chain ends. Non-standard residues stand in square brackets, D forms with d. No end group written: not given here. TATB = O=C(C[*:1])N1CN(C(=O)C[*:2])CN(C(=O)C[*:3])C1; tBuAla = CC(C)(C)C[C@H](N)C(=O)O; 4Pal = N[C@@H](Cc1ccncc1)C(=O)O; Tle = CC(C)(C)[C@H](N)C(=O)O; Aib = CC(C)(N)C(=O)O
Provide the recorded pKi for the entries that follow.
The meaning of pKi here: minus log10 of the concentration in molar units.

query: Which pKi value belongs to Ac-CSADAHLGCISYC (linker 1-9-13 via TATB (inferred)) [BCY17987] ?
result: 6.42

query: pKi for ACSPDAYLGC[tBuAla]SYCA (linker 2-10-14 via TATB) [BCY16558] ?
result: 5.79

query: What value of pKi has been reported for the following binder? ACSPDAHLGCIS[4Pal]CA (linker 2-10-14 via TATB) [BCY16032]
result: 6.18

query: Quick check: pKi of ACP[Aib]DAHLGC[Tle]SYCA (linker 2-10-14 via TATB) [BCY16962] ?
result: 7.44
